Tested on: Amaranthus retroflexus (AMARE)
Assay: A. Herbicidal pre-emergence efficacy, AMARE
Format: in vivo
Settings: 80 g/ha
Some molecules, each annotated with its measured Pre-emergence efficacy against AMARE in %.
experimentalEndpoint: Pre-emergence efficacy against AMARE in % (%)

>  <smilesData>
Cc1cccc(Oc2ncc(Cl)cn2)c1OS(=O)(=O)CC1CC(F)(F)C1

>  <unitDescriptor>
%

>  <measuredResult>
90

$$$$
>  <smilesData>
O=S(=O)(CCC1CC1)Oc1c(F)cccc1Oc1ncc(Cl)cn1

>  <unitDescriptor>
%

>  <measuredResult>
100

$$$$
>  <smilesData>
Cc1cccc(Oc2ncc(Cl)cn2)c1OS(=O)(=O)CCCC(F)(F)C(F)(F)F

>  <unitDescriptor>
%

>  <measuredResult>
90

$$$$
>  <smilesData>
O=S(=O)(CCC(F)(F)F)Oc1c(Br)cccc1Oc1ncc(Cl)cn1

>  <unitDescriptor>
%

>  <measuredResult>
100

$$$$
>  <smilesData>
CC(C)CS(=O)(=O)Oc1ccccc1Oc1ncc(Cl)cn1

>  <unitDescriptor>
%

>  <measuredResult>
100

$$$$
